TEST SYSTEM: mineralocorticoid receptor (Homo sapiens (Human), UniProt P08235)
Sequence (P08235 whole entry): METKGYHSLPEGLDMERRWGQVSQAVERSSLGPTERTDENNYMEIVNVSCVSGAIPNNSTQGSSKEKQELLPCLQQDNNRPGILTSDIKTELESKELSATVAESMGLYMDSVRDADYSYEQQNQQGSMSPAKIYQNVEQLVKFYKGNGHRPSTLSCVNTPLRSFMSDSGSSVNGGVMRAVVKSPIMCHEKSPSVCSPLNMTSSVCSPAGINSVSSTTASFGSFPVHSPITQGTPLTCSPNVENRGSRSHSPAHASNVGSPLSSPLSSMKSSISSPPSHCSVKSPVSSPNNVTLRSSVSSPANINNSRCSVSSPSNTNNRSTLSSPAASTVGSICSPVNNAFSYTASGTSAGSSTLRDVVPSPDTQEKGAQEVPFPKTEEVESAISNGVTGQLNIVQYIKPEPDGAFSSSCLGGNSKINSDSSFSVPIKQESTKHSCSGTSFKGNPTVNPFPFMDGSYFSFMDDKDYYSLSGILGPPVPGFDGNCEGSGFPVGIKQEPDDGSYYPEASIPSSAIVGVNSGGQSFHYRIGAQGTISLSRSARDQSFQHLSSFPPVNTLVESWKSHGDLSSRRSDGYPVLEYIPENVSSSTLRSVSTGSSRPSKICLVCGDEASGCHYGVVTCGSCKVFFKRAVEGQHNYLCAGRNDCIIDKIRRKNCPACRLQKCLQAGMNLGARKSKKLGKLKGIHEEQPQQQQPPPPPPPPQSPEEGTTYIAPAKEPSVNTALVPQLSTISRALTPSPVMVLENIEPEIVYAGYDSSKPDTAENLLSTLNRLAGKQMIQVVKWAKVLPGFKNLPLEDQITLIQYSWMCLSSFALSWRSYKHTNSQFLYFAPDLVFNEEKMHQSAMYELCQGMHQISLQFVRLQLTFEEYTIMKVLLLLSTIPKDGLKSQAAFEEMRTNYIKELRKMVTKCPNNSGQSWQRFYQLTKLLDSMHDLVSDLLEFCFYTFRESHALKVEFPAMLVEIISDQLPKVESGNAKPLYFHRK
TEST METHOD NOTES: Antimineralocorticoid action by transactivation test (MDCK reporter cells)
RECORDED CONDITIONS: MDCK reporter cells, 1 nM aldosterone; read-out: Mineralocorticoid receptor Antagonism IC50
IC50 values, listed per item
Please state the figure in nM; there is no need to write the unit.

Sample answers from the record:
What IC50 value was documented for this molecule, CC[C@]12CC[C@H]3[C@@H](CCC4=CC(=O)CC[C@@H]43)[C@@H]1CC[C@@]21C=CCO1 (stereo in doubt) [Example 7] ?
5

What IC50 value was documented for this molecule, CC[C@]12CC[C@H]3[C@@H](C[C@@H](CO)C4=CC(=O)CC[C@@H]43)[C@@H]1CC[C@@]21C=CCO1 [Example 13] ?
110

What IC50 value was documented for this molecule, C[C@]12CC[C@H]3[C@@H](CCC4=CC(=O)CC[C@@H]43)[C@@H]1CC[C@@]21C=CCO1 (stereo in doubt) [Example 1] ?
31

What IC50 value was documented for this molecule, C[C@]12CC[C@H]3[C@@H](CCC4=CC(=O)CC[C@@H]43)[C@@H]1CC1(CC1)[C@@]21C=CCO1 (stereo in doubt) [Example 6] ?
1000

Consider the additional molecule presented here.
What IC50 value was documented for this molecule, CC[C@]12CC[C@H]3[C@@H]([C@H](C)CC4=CC(=O)CC[C@@H]43)[C@@H]1CC[C@@]21C=CCO1 [Example 9] ?
38

* * *

TEST SYSTEM: mineralocorticoid receptor (Homo sapiens (Human), UniProt P08235)
TEST METHOD NOTES: Antimineralocorticoid action by transactivation test (MDCK reporter cells)
RECORDED CONDITIONS: MDCK reporter cells, 1 nM aldosterone; read-out: Mineralocorticoid receptor Antagonism IC50
OUTCOME MEASURE: IC50 (nM)
Please state the figure in nM; there is no need to write the unit.

Sample answers from the record:
What IC50 value was documented for this compound, CC[C@]12CC[C@H]3[C@@H](C=CC4=CC(=O)CC[C@@H]43)[C@@H]1CC[C@@]21C=CCO1 (stereo in doubt) ?
66

What IC50 value was documented for this compound, C[C@]12CC[C@H]3[C@@H](C=CC4=CC(=O)CC[C@@H]43)[C@@H]1CC[C@@]21C=CCO1 (stereo in doubt) ?
92

What IC50 value was documented for this compound, "CC[C@@H]1CC2=CC(=O)CC[C@@H]2[C@H]2CC[C@@]3(CC)[C@@H](CC[C@@]34C=CCO4)[C@H]12" ?
850

What IC50 value was documented for this compound, "C[C@@H]1CC2=CC(=O)CC[C@@H]2[C@H]2CC[C@@]3(C)[C@@H](CC[C@@]34C=CCO4)[C@@H]21" ?
17

What IC50 value was documented for this compound, "C=C[C@@H]1CC2=CC(=O)CC[C@@H]2[C@H]2CC[C@@]3(C)[C@@H](CC[C@@]34C=CCO4)[C@@H]21" ?
57

Consider the additional compound presented here.
What IC50 value was documented for this compound, "CC[C@@H]1CC2=CC(=O)CC[C@@H]2[C@H]2CC[C@@]3(C)[C@@H](CC[C@@]34C=CCO4)[C@H]12" ?
310

* * *

Emax values, listed per item
TEST SYSTEM: androgen receptor (Homo sapiens (Human))
Sequence (P10275 whole entry, species assumed): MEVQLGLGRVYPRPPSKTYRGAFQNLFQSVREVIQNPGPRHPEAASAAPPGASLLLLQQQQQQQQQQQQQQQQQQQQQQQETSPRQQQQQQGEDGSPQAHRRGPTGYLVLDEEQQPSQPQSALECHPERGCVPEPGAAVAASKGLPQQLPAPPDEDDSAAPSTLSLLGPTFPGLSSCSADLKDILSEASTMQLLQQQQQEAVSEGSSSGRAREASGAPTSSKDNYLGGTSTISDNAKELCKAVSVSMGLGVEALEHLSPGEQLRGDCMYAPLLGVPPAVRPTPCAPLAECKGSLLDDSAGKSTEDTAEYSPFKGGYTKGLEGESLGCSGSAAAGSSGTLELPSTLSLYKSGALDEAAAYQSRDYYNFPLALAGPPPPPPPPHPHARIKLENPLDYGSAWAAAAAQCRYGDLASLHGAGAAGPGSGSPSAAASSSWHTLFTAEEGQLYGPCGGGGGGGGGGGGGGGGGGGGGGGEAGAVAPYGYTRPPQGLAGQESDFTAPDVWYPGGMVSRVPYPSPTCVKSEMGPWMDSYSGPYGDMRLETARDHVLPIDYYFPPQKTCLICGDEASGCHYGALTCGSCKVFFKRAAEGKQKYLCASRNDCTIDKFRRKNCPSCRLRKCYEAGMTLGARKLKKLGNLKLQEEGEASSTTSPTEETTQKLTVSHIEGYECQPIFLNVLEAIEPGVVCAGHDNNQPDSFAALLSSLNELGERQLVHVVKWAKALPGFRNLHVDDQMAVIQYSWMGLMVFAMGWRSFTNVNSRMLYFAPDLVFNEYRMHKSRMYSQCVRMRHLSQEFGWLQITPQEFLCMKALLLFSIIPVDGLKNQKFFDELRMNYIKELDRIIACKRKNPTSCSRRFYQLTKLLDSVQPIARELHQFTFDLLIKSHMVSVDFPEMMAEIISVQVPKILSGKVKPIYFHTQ
TEST METHOD NOTES: Androgenic/antiandrogenic action by transactivation test (PC3 reporter cells)
Type: cell-based
RECORDED CONDITIONS: 0.05 nM R1881, read-out: Androgen receptor Antagonism efficacy
Number first, unit second.

Sample answers from the record:
What Emax value was documented for this molecule, C[C@]12CC[C@H]3[C@@H](CCC4=CC(=O)CC[C@@H]43)[C@@H]1CC1(CC1)[C@@]21C=CCO1 (stereo in doubt) ?
70.1%

What Emax value was documented for this molecule, "CC[C@]12CC[C@H]3[C@@H]([C@H](C)CC4=CC(=O)CC[C@@H]43)[C@@H]1CC[C@@]21C=CCO1" ?
5%

What Emax value was documented for this molecule, "CC[C@]12CC[C@H]3[C@@H](C[C@@H](CO)C4=CC(=O)CC[C@@H]43)[C@@H]1CC[C@@]21C=CCO1" ?
48.1%

Consider the additional molecule presented here.
What Emax value was documented for this molecule, "C=C[C@@H]1CC2=CC(=O)CC[C@@H]2[C@H]2CC[C@@]3(C)[C@@H](CC[C@@]34C=CCO4)[C@@H]21" ?
5%

* * *

EC50 values, listed per item
TEST SYSTEM: fusion protein from the PR-ligand-binding domain and a Gal4-transactivation domain (Homo sapiens, UniProt P06401)
Sequence (P06401 679-913): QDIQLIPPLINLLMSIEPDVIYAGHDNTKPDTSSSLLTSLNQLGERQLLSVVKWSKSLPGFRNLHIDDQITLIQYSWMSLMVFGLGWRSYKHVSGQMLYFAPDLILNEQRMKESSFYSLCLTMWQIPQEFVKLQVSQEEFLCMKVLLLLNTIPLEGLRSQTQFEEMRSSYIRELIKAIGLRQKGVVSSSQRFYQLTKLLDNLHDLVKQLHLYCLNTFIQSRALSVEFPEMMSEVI
TEST METHOD NOTES: Progestational action by transactivation test (CHO K1 reporter cells)
RECORDED CONDITIONS: CHO K1 luciferase reporter, 16 hours incubation; read-out: Progesterone receptor Agonism EC50
Please state the figure in nM; there is no need to write the unit.

Sample answers from the record:
What EC50 value was documented for this molecule, "C=C[C@@H]1CC2=CC(=O)CC[C@@H]2[C@H]2CC[C@@]3(CC)[C@@H](CC[C@@]34C=CCO4)[C@@H]21" ?
100

What EC50 value was documented for this molecule, C[C@]12CC[C@H]3[C@@H](C=CC4=CC(=O)CC[C@@H]43)[C@@H]1CC[C@@]21C=CCO1 (stereo in doubt) ?
2.9

What EC50 value was documented for this molecule, "CC[C@]12CC[C@H]3[C@@H](C[C@@H](CO)C4=CC(=O)CC[C@@H]43)[C@@H]1CC[C@@]21C=CCO1" ?
1000

What EC50 value was documented for this molecule, CC[C@]12CC[C@H]3[C@@H](C=CC4=CC(=O)CC[C@@H]43)[C@@H]1CC[C@@]21C=CCO1 (stereo in doubt) ?
1.1

What EC50 value was documented for this molecule, "CC[C@@H]1CC2=CC(=O)CC[C@@H]2[C@H]2CC[C@@]3(C)[C@@H](CC[C@@]34C=CCO4)[C@H]12" ?
67

What EC50 value was documented for this molecule, "CC[C@]12CC[C@H]3[C@@H]([C@H](C)CC4=CC(=O)CC[C@@H]43)[C@@H]1CC[C@@]21C=CCO1" ?
7.1

More entries:
What EC50 value was documented for this molecule, "C=C[C@@H]1CC2=CC(=O)CC[C@@H]2[C@H]2CC[C@@]3(C)[C@@H](CC[C@@]34C=CCO4)[C@@H]21" ?
1.2

What EC50 value was documented for this molecule, "CC[C@@H]1CC2=CC(=O)CC[C@@H]2[C@H]2CC[C@@]3(CC)[C@@H](CC[C@@]34C=CCO4)[C@H]12" ?
780

What EC50 value was documented for this molecule, "CC[C@]12CC[C@H]3[C@@H]([C@H](C4CC4)CC4=CC(=O)CC[C@@H]43)[C@@H]1CC[C@@]21C=CCO1" ?
55

What EC50 value was documented for this molecule, "C[C@@H]1CC2=CC(=O)CC[C@@H]2[C@H]2CC[C@@]3(C)[C@@H](CC[C@@]34C=CCO4)[C@@H]21" ?
3.7

* * *

Emax values, listed per item
TEST SYSTEM: fusion protein from the PR-ligand-binding domain and a Gal4-transactivation domain (Homo sapiens, UniProt P06401)
TEST METHOD NOTES: Progestational action by transactivation test (CHO K1 reporter cells)
Type: cell-based
RECORDED CONDITIONS: CHO K1 luciferase reporter, 16 hours incubation; read-out: Progesterone receptor Agonism efficacy
Number first, unit second.

What Emax value was documented for this molecule, C=C[C@@H]1CC2=CC(=O)CC[C@@H]2[C@H]2CC[C@@]3(CC)[C@@H](CC[C@@]34C=CCO4)[C@@H]21 [Example 11] ?
29.5%

More entries:
What Emax value was documented for this molecule, CC[C@]12CC[C@H]3[C@@H](C[C@@H](CO)C4=CC(=O)CC[C@@H]43)[C@@H]1CC[C@@]21C=CCO1 [Example 13] ?
5%

* * *

TEST SYSTEM: mineralocorticoid receptor (Homo sapiens (Human), UniProt P08235)
TEST METHOD NOTES: Antimineralocorticoid action by transactivation test (MDCK reporter cells)
Format: cell-based
RECORDED CONDITIONS: MDCK reporter cells, 1 nM aldosterone; read-out: Mineralocorticoid receptor Antagonism efficacy
OUTCOME MEASURE: Emax (%)
Please state the figure in %; there is no need to write the unit.

Sample answers from the record:
What Emax value was documented for this compound, C[C@]12CC[C@H]3[C@@H](CCC4=CC(=O)CC[C@@H]43)[C@@H]1CC1(CC1)[C@@]21C=CCO1 (stereo in doubt) ?
65.1

What Emax value was documented for this compound, C[C@]12CC[C@H]3[C@@H](C=CC4=CC(=O)CC[C@@H]43)[C@@H]1CC[C@@]21C=CCO1 (stereo in doubt) ?
136

What Emax value was documented for this compound, C[C@]12CC[C@H]3[C@@H](CCC4=CC(=O)CC[C@@H]43)[C@@H]1CC[C@@]21C=CCO1 (stereo in doubt) ?
83

What Emax value was documented for this compound, CC[C@]12CC[C@H]3[C@@H](C=CC4=CC(=O)CC[C@@H]43)[C@@H]1CC[C@@]21C=CCO1 (stereo in doubt) ?
112

More entries:
What Emax value was documented for this compound, "CC[C@@H]1CC2=CC(=O)CC[C@@H]2[C@H]2CC[C@@]3(C)[C@@H](CC[C@@]34C=CCO4)[C@H]12" ?
82.2
